- procedureText: Chemical properties of SDC-TRAP-0063
- Type: physicochemical
measuredEndpoint: logP
The response must contain the number and no unit.

Input line: So what's the measured logP for this one? CCc1c2c(nc3ccc(OC(=O)N4CCC(CCn5ccc6cc(-n7c(O)nnc7-c7cc(C(C)C)c(O)cc7O)ccc65)CC4)cc13)-c1cc3c(c(=O)n1C2)COC(=O)[C@]3(O)CC
Output line: 4.69

* * *

% Remaining (1 h) for assorted molecules
- procedureText: Mouse plasma stability protocol, up to 1 h (Examples 16-18)
- setupConditions: % Remaining of parent after 1 h incubation in mouse plasma at 37° C. (10 μM)
Express it in %; write the number only.

[
  {
    "molecule": "CCNC(=O)c1nnc(-c2cc(C(C)C)c(O)cc2O)n1-c1ccc2c(ccn2CCC2CCN(C(=O)O[C@]3(CC)C(=O)OCc4c3cc3n(c4=O)Cc4c-3nc3ccc(O)cc3c4CC)CC2)c1",
    "% Remaining (1 h) (%)": 86.1
  },
  {
    "molecule": "CCNC(=O)c1nnc(-c2cc(C(C)C)c(O)cc2O)n1-c1ccc2c(ccn2CCC2CCN(C(=O)Oc3ccc4nc5c(c(CC)c4c3)Cn3c-5cc4c(c3=O)COC(=O)[C@]4(O)CC)CC2)c1",
    "% Remaining (1 h) (%)": 58.4
  },
  {
    "molecule": "CCNC(=O)c1nnc(-c2cc(C(C)C)c(O)cc2O)n1-c1ccc(OC2CCN(C(=O)CN(C)C(=O)Oc3ccc4nc5c(c(CC)c4c3)Cn3c-5cc4c(c3=O)COC(=O)[C@]4(O)CC)CC2)cc1",
    "% Remaining (1 h) (%)": 68.6
  },
  {
    "molecule": "COc1ccc(-c2cnoc2-c2cc(OC)c(OC)c(OC)c2)cc1OC(=O)N1CCN(Cc2ccc(-n3c(O)nnc3-c3cc(C(C)C)c(O)cc3O)cc2)CC1",
    "% Remaining (1 h) (%)": 96.0
  },
  {
    "molecule": "CCNC(=O)c1nnc(-c2cc(C(C)C)c(O)cc2O)n1-c1ccc(S(=O)(=O)N2CCC(C(=O)N3CCN(C(=O)Oc4ccc5nc6c(c(CC)c5c4)Cn4c-6cc5c(c4=O)COC(=O)C5(O)CC)C(C)C3)CC2)cc1 (stereo not shown)",
    "% Remaining (1 h) (%)": 71.6
  },
  {
    "molecule": "CCc1c2c(nc3ccc(OC(=O)N4CCC(N5CCC(CCn6ccc7ccc(-n8c(O)nnc8-c8cc(C(C)C)c(O)cc8O)cc76)CC5)CC4)cc13)-c1cc3c(c(=O)n1C2)COC(=O)C3(O)CC (stereo not shown)",
    "% Remaining (1 h) (%)": 22.5
  },
  {
    "molecule": "CCNC(=O)c1nnc(-c2cc(C(C)C)c(O)cc2O)n1-c1ccc2c(c1)CN(C(=O)Oc1ccc3nc4c(c(CC)c3c1)Cn1c-4cc3c(c1=O)COC(=O)C3(O)CC)C2 (stereo not shown)",
    "% Remaining (1 h) (%)": 44.7
  },
  {
    "molecule": "CCc1c2c(nc3ccc(OC(=O)N4CCC(S(=O)(=O)N5CCC(CCn6ccc7cc(-n8c(O)nnc8-c8cc(C(C)C)c(O)cc8O)ccc76)CC5)CC4)cc13)-c1cc3c(c(=O)n1C2)COC(=O)[C@]3(O)CC",
    "% Remaining (1 h) (%)": 31.7
  }
]

Input line: Entry under review: CCc1c2c(nc3ccc(O)cc13)-c1cc3c(c(=O)n1C2)COC(=O)[C@@]3(CC)OC(=O)N1CCC(CCc2ccc(-n3c(O)nnc3-c3cc(C(C)C)c(O)cc3O)cc2)CC1 . Reported % Remaining (1 h)?
Output line: 95.5

Input line: Which % Remaining (1 h) value belongs to CCNC(=O)c1nnc(-c2cc(C(C)C)c(O)cc2O)n1-c1ccc(OC2CCN(C(=O)C3CCN(C(=O)Oc4ccc5nc6c(c(CC)c5c4)Cn4c-6cc5c(c4=O)COC(=O)[C@]5(O)CC)C(C)C3)CC2)cc1 (stereo partly shown) ?
Output line: 74.7

Input line: So what does the record say about % Remaining (1 h) for CCc1c2c(nc3ccc(OC(=O)N(C)CCOCCn4ccc5cc(-n6c(O)nnc6-c6cc(C(C)C)c(O)cc6O)ccc54)cc13)-c1cc3c(c(=O)n1C2)COC(=O)C3(O)CC (stereo not shown) ?
Output line: 47.0

Input line: // returns reported % Remaining (1 h) for input CCc1c2c(nc3ccc(O)cc13)-c1cc3c(c(=O)n1C2)COC(=O)C3(CC)OC(=O)CN1CCC(Cc2ccc(-n3c(O)nnc3-c3cc(C(C)C)c(O)cc3O)cc2)CC1 (stereo not shown)
Output line: 102

Input line: Tell me the measured % Remaining (1 h) of CCc1c2c(nc3ccc(O)cc13)-c1cc3c(c(=O)n1C2)COC(=O)[C@]3(O)CC [SN-38, reference compound] , please.
Output line: 63.5

Input line: Item CCNC(=O)c1nnc(-c2cc(C(C)C)c(O)cc2O)n1-c1ccc(C(=O)N2CCN(C(=O)COC(=O)OC3(CC)C(=O)OCc4c3cc3n(c4=O)Cc4c-3nc3ccc(O)cc3c4CC)CC2)cc1 (stereo not shown) has what recorded % Remaining (1 h)?
Output line: 21.2

Input line: Query (molecule): CCc1c2c(nc3ccc(O)cc13)-c1cc3c(c(=O)n1C2)COC(=O)C3(CC)OC(=O)N1CCN(Cc2ccc(-n3c(O)nnc3-c3cc(C(C)C)c(O)cc3O)cc2)CC1 (stereo not shown) ; field requested: % Remaining (1 h)
Output line: 88.9

Input line: So what's the measured % Remaining (1 h) for this one? CCNC(=O)c1nnc(-c2cc(C(C)C)c(O)cc2O)n1-c1ccc(OC2CCN(C(=O)[C@@H]3CCCN3C(=O)Oc3ccc4nc5c(c(CC)c4c3)Cn3c-5cc4c(c3=O)COC(=O)[C@]4(O)CC)CC2)cc1
Output line: 67.1

Input line: Endpoint output: % Remaining (1 h) of CCNC(=O)c1nnc(-c2cc(C(C)C)c(O)cc2O)n1-c1ccc(C(=O)N2CCN(c3cc(C)c(OC(=O)Nc4cccc5c4C(=O)N(C4CCC(=O)NC4=O)C5=O)c(C)c3)CC2)cc1 (stereo not shown) . Value?
Output line: 70.4

Input line: Endpoint output: % Remaining (1 h) of CCc1c2c(nc3ccc(OC(=O)N(C)CC(=O)N4CCC(CCn5ccc6cc(-n7c(O)nnc7-c7cc(C(C)C)c(O)cc7O)ccc65)CC4)cc13)-c1cc3c(c(=O)n1C2)COC(=O)[C@]3(O)CC . Value?
Output line: 77.3

Input line: Given the entry CCc1c2c(nc3ccc(OC(=O)N(C)CCCCN4CCN(Cc5ccc(-n6c(O)nnc6-c6cc(C(C)C)c(O)cc6O)cc5)CC4)cc13)-c1cc3c(c(=O)n1C2)COC(=O)C3(O)CC (stereo not shown) , report its measured % Remaining (1 h).
Output line: 60.6

Taken from patent US10828315B2.
